Give growth inhibition by drug plus 177Lu-lilotomab satetraxetan for every item shown.
tested on: U-2932; assay: growth inhibition by drug plus 177Lu-lilotomab satetraxetan (1 - RLU/untreated control) (fraction); higher = stronger inhibition; details: 1000 nM; time (day): 5; 177Lu-lilotomab satetraxetan 1 ug/ml
Counter-ions that a name gives are not always drawn.
Give bare numbers.

Some solved entries appear below for comparison.
>  <COMPOUND>
CC[C@@H]1C(=O)N(C)c2cnc(Nc3ccc(C(=O)NC4CCN(C)CC4)cc3OC)nc2N1C1CCCC1

>  <MEASURED_NUMBER>
0.97

$$$$
>  <COMPOUND>
Cc1cc(O)c2c(c1)C(=O)c1cccc(O)c1C2=O

>  <MEASURED_NUMBER>
-0.00693

$$$$
>  <COMPOUND>
OC[C@H]1O[C@@H](n2cnc3c2N=CNC[C@H]3O)C[C@@H]1O

>  <MEASURED_NUMBER>
0.118

$$$$
>  <COMPOUND>
CC(=O)[C@]1(O)Cc2c(O)c3c(c(O)c2[C@@H](O[C@H]2C[C@H](N)[C@H](O)[C@H](C)O2)C1)C(=O)c1ccccc1C3=O [Idarubicin HCl]

>  <MEASURED_NUMBER>
0.981

$$$$
>  <COMPOUND>
Nc1nccc(Oc2ccc(NC(=O)c3c[nH]cc(-c4ccc(F)cc4)c3=O)cc2F)c1Cl

>  <MEASURED_NUMBER>
0.0665

$$$$
>  <COMPOUND>
Nc1ncn([C@@H]2O[C@H](CO)[C@@H](O)[C@H]2O)c(=O)n1

>  <MEASURED_NUMBER>
0.146

$$$$
>  <COMPOUND>
O=C1c2c(O)ccc(O)c2C(=O)c2c(NCCNCCO)ccc(NCCNCCO)c21 [Mitoxantrone Hydrochloride]

>  <MEASURED_NUMBER>
0.987

$$$$

// below: growth inhibition by drug plus 177Lu-lilotomab satetraxetan requested for another compound
Incoming: What value of growth inhibition by drug plus 177Lu-lilotomab satetraxetan on U-2932 does COc1cc(Nc2ncc(F)c(Nc3ccc4c(n3)N(COP(=O)(O)O)C(=O)C(C)(C)O4)n2)cc(OC)c1OC have?
Outgoing: 0.0277

###

Give growth inhibition by drug alone for every item shown.
system: U-2932; test: growth inhibition by drug alone (1 - RLU/untreated control) (fraction); higher = stronger inhibition; conditions: 10 nM; time (day): 3; 177Lu-lilotomab satetraxetan 0 ug/ml
One number for each entry.

Here are 6 compounds. What values of growth inhibition by drug alone were reported for them?
1. CC(C)[C@H](C(=O)Nc1ccc(C(=O)NO)cc1)c1ccccc1
2. CC(C)C[C@H](NC(=O)CNC(=O)c1cc(Cl)ccc1Cl)B1OC(=O)C(CC(=O)O)(CC(=O)O)O1
3. CC(C)C[C@@H](C(=O)N[C@H](C(=O)OC1CCCC1)c1ccccc1)[C@H](O)C(=O)NO
4. COc1cc2/c(=N/c3ccc(Br)cc3F)nc[nH]c2cc1OCC1CCN(C)CC1 [Vandetanib (Zactima)]
5. COc1ncc(-c2ccc3nccc(-c4ccnnc4)c3c2)cc1NS(=O)(=O)c1ccc(F)cc1F
6. CC(c1cc2ccccc2s1)N(O)C(N)=O (stereo not drawn)

Outgoing:
1: 0.0244; 2: 0.0922; 3: 0.0666; 4: -0.05; 5: 0.726; 6: 0.0373

Here are 2 compounds. What values of growth inhibition by drug alone were reported for them?
1. CC1(C)CCC(c2ccc(Cl)cc2)=C(CN2CCN(c3ccc(C(=O)NS(=O)(=O)c4ccc(N[C@H](CCN5CCOCC5)CSc5ccccc5)c(S(=O)(=O)C(F)(F)F)c4)cc3)CC2)C1
2. COc1ccc(-c2oc3cc(OC)ccc3c2C(=O)c2ccc(C#N)cc2)cc1

Outgoing:
1: -0.00418; 2: 0.084
